Please go through the items and note down their bioavailability.
Test: Oral bioavailability in mouse at 100 mg/kg
Type: ADME, organism-based
Conditions: in vivo
One number for each entry, in %.

CC1CC(C(=O)Nc2nc3ccc(Br)cc3s2)CC(C)(C)C1 (configuration not stated); 75

As a next step, examine the compound that follows.
Note to self: bioavailability recorded for CC1CC(C)CC(C(=O)Nc2nc3ccc(C(F)(F)F)cc3s2)C1 (configuration not stated) was 53

* * *

Biological target: Cytochrome P450 2D6 (Homo sapiens, UniProt P10635)
Sequence (P10635 whole entry): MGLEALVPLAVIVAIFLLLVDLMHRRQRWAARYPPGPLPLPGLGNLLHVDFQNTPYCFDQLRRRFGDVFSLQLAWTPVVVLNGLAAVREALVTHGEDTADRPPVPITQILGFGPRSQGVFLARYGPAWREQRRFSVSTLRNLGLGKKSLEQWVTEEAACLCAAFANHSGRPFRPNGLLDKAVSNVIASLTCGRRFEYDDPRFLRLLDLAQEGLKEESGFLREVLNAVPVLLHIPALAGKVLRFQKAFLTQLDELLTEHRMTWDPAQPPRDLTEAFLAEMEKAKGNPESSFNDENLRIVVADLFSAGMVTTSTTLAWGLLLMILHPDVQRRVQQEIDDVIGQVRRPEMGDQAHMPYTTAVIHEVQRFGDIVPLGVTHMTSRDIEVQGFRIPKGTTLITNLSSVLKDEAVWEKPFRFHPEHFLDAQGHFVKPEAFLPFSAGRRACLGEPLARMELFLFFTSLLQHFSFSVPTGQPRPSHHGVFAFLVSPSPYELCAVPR
measurement_name: pIC50
Answers are plain numbers, as −log10 of the molar value.

CC1CC(C(=O)Nc2nc3ccc(Cl)cc3s2)CC(C)(C)C1 (centres undefined); 6.70
CC1CC(C)CC(C(=O)Nc2nc3ccc(C(F)(F)F)cc3s2)C1 (centres undefined); 5.85

As a next step, examine the compound that follows.
Note to self: pIC50 recorded for CC1CC(C(=O)Nc2nc3ccc(Br)cc3s2)CC(C)(C)C1 (centres undefined) was 5.80
